- System Name: Cystic fibrosis transmembrane conductance regulator (Homo sapiens, UniProt P13569)
- Sequence (P13569 whole entry): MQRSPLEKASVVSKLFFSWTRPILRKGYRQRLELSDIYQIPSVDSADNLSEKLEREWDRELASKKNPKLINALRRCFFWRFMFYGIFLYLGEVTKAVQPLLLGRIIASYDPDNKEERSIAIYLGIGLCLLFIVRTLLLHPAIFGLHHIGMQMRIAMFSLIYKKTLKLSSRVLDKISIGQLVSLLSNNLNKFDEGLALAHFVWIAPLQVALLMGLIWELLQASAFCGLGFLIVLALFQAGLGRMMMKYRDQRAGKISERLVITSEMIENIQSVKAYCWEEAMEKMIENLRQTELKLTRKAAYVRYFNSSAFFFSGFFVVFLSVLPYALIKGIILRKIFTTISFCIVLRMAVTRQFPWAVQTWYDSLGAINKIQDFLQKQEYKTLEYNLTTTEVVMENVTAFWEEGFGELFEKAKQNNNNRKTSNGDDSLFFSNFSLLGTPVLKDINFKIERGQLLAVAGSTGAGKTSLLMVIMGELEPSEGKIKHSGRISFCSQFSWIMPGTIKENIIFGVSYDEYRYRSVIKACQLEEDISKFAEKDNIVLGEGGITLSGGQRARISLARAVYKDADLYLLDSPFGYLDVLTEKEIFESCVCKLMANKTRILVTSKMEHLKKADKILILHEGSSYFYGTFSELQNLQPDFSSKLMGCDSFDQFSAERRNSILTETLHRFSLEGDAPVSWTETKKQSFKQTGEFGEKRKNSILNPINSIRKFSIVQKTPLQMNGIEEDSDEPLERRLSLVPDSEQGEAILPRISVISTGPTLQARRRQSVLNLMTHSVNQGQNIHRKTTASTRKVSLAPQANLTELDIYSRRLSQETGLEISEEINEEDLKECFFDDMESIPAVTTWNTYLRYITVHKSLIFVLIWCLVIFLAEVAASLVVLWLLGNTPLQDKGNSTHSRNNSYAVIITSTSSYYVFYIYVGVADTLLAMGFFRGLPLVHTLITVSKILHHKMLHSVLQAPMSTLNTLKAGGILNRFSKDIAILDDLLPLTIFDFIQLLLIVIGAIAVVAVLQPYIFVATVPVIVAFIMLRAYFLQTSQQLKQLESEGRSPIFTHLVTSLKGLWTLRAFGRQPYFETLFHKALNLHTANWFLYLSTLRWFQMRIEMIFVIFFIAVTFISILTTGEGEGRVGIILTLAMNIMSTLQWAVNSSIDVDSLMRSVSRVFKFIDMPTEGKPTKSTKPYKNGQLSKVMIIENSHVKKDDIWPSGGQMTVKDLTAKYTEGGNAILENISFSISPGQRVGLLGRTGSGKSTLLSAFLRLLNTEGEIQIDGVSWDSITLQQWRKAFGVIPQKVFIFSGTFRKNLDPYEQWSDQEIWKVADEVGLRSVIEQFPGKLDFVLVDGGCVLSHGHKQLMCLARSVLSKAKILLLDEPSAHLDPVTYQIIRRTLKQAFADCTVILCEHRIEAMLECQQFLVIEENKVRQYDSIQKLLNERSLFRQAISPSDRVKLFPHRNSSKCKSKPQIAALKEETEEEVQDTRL
- Measurement Description: Activation of human CFTR expressed in rat FRT cells
- Format: cell-based
pEC50: −log10 of the molar value.

Molecule: Cc1cc(C)cc(/N=C2/NC(=O)/C(=C/c3ccc(O)cc3)S2)c1
pEC50: 6.48
//
Molecule: COc1ccccc1CC(=O)Nc1nnc(Cc2ccc(OC)c(OC)c2)s1
pEC50: 6.47
//
Molecule: O=C(c1cccs1)N1N=C(c2ccccc2)CC1c1ccccc1[N+](=O)[O-] (stereo not drawn)
pEC50: 6.41
